Biological target: 20S proteasome ChT-L activity (Homo sapiens, UniProt P28074)
Construct: This assay measures the ChT-L protease activity in cultured cells; endogenous in cells; host or cells: MCF-7 and PC-3 cells
Test: Cell-based 20S proteasome ChT-L inhibition assay in MCF-7 cells
Settings: MCF7; MCF-7 cells, percent inhibition at 10 µM; ChT-L activity, LLVY-R110 substrate; read-out: 20S proteasome inhibition, Inhibition [%] MCF-7
Kindly return Condition met if reported inhibition at 10 µM is no lower than 50%; return Condition not met if it is lower.

These solved cases illustrate the format of a correct answer.
molecule	assignedLabel
O=[N+]([O-])C(=Cc1ccc(Cl)cc1)CO [Compound 2b, 2-Nitro-3-(4-chlorophenyl)prop-2-en-1-ol]	Condition not met
Cc1ccc(C=C(Cc2ccccc2)[N+](=O)[O-])cc1 [Compound 4c, 3-(4-methylphenyl)-2-nitroallylbenzene]	Condition not met
COc1ccc(C=C[N+](=O)[O-])cc1 [Compound 1d, 1-methoxy-4-(2-nitrovinyl) benzene]	Condition met
COc1ccc(C=C(CC(C)C)[N+](=O)[O-])cc1 [Compound 6b]	Condition not met
O=[N+]([O-])C=Cc1ccccc1 [Compound 1a, (2-nitrovinyl)benzene]	Condition met
Cc1ccc(C=C(CO)[N+](=O)[O-])cc1 [Compound 2c, 2-Nitro-3-(4-tolyl)prop-2-en-1-ol]	Condition met
COc1ccc(C=C(Cc2ccccc2)[N+](=O)[O-])cc1 [Compound 4d, 3-(4-methoxyphenyl)-2-nitroallylbenzene]	Condition met
COc1ccc(C=C(CO)[N+](=O)[O-])cc1 [Compound 2d]	Condition met

Ask: Check the entry O=[N+]([O-])C=Cc1ccc(Cl)cc1 [Compound 1b, 1-chloro-4-(2-nitrovinyl)benzene] : does inhibition at 10 µM equal or exceed 50%?
Result: Condition met

Ask: Is inhibition at 10 µM at least 50%? Consider O=[N+]([O-])C(=Cc1ccccc1)CO [Compound 2a, 2-Nitro-3-phenylprop-2-en-1-ol]
Result: Condition met

Ask: Hello, I need to know if Cc1ccc(C=C(CC(C)C)[N+](=O)[O-])cc1 [Compound 6a] has measured inhibition at 10 µM not below 50%. Thanks!
Result: Condition not met

Ask: Reported inhibition at 10 µM at or above 50%? O=[N+]([O-])C(=Cc1ccccc1)Cc1ccccc1 [Compound 4a, 3-(phenyl)-2-nitroallylbenzene]
Result: Condition met

Ask: Hello, I need to know if Cc1ccc(C=C[N+](=O)[O-])cc1 [Compound 1c, 1-methyl-4-(2-nitrovinyl)benzene] has measured inhibition at 10 µM not below 50%. Thanks!
Result: Condition met

====

Field: melting point. Provide a value for each of the molecules that follow.

molecule	melting point
CN(C)c1ccc(C=C(Cc2ccccc2)[N+](=O)[O-])cc1 [Compound 4e]	110 to 113 °C

For each of the molecules below, state melting point.
1. Cc1ccc(C=C(CO)[N+](=O)[O-])cc1 [Compound 2c, 2-Nitro-3-(4-tolyl)prop-2-en-1-ol]
2. Cc1ccc(C=C(Cc2ccccc2)[N+](=O)[O-])cc1 [Compound 4c, 3-(4-methylphenyl)-2-nitroallylbenzene]
3. COc1ccc(C=C(Cc2ccccc2)[N+](=O)[O-])cc1 [Compound 4d, 3-(4-methoxyphenyl)-2-nitroallylbenzene]
4. O=[N+]([O-])C(=Cc1ccc(Cl)cc1)Cc1ccccc1 [Compound 4b, 3-(4-chlorophenyl)-2-nitroallylbenzene]

Result:
1: 52 to 54 °C; 2: 105 to 107 °C; 3: 53 to 56 °C; 4: 98 to 100 °C
